Test system: SCLC strain SHP-77
Test: Colorimetric tetrazolium (MTT) assay for cell survival, SCLC strain SHP-77
Assay type: cell-based, human
Details: SCLC strain SHP-77 in vitro
property: MTT: ED50 for killing of SCLC strain SHP-77 in vitro (µM)
Answer with a number only, understood to be in µM.

>>> experimental_value("O=C(C=Cc1ccc(NC(=O)CCCCCCCCCCC(=O)Nc2ccc(C=CC(=O)NC(Cc3ccc4ccccc4c3)C(=O)NC3CCNCC3)cc2)cc1)NC(Cc1ccc2ccccc2c1)C(=O)NC1CCNCC1 (stereo not shown)")
30

Quick one: give measured MTT: ED50 for killing of SCLC strain SHP-77 in vitro for CN(C)c1cccc2c(S(=O)(=O)NC(Cc3ccc(OCc4ccccc4)cc3)C(=O)NC3CC(C)(C)NC(C)(C)C3)cccc12 (stereo not shown) 4.5

Quick one: give measured MTT: ED50 for killing of SCLC strain SHP-77 in vitro for CN(C)c1ccc(C=CC(=O)NC(Cc2csc3ccccc23)C(=O)NC2CC(C)(C)NC(C)(C)C2)cc1 (stereo not shown) 2.7

Quick one: give measured MTT: ED50 for killing of SCLC strain SHP-77 in vitro for O=C(CCCCCCCCCCC(=O)N[C@@H](Cc1cccnc1)C(=O)N[C@@H](Cc1ccc2ccccc2c1)C(=O)NC1CCCCC1)N[C@@H](Cc1cccnc1)C(=O)N[C@@H](Cc1ccc2ccccc2c1)C(=O)NC1CCCCC1 15
